Assignment: determine reported kinase still bound, per cent of control for the given molecules.
- Measurement Target: CAMK1D (human)
- Experiment: KINOMEscan competition binding
- Condition Set: compound 10.0 µM
Express the result in % but write the number alone.

Problem: What value of kinase still bound, per cent of control has been reported for the following molecule? `CCc1nc(-c2cccc(C)c2)c(-c2ccnc(NC(=O)c3ccccc3)c2)s1`
Solution: 100

Problem: What value of kinase still bound, per cent of control has been reported for the following molecule? CC1=C(C(=O)Nc2cc3cn[nH]c3cc2F)C(c2ccc(C(F)(F)F)cc2)CC(=O)N1 (stereo not drawn)
Solution: 97

Problem: What value of kinase still bound, per cent of control has been reported for the following molecule? `CNC(=O)Nc1ccc(-c2nc(N3CC4CCC(C3)O4)c3cnn(C4CCC5(CC4)OCCO5)c3n2)cc1`
Solution: 95

Problem: What value of kinase still bound, per cent of control has been reported for the following molecule? `CCN1CCN(Cc2ccc(NC(=O)c3ccc(C)c(/C=C/c4cnc5[nH]ccc5c4OC)c3)cc2C(F)(F)F)CC1`
Solution: 100

Problem: What value of kinase still bound, per cent of control has been reported for the following molecule? `COc1ccc(N(C(=O)Oc2cc(C(=O)Nc3cccc(C(F)(F)F)c3)ccc2C)c2ccnc(Nc3ccc(N4CCN(C)CC4)cc3)n2)c(OC)c1`
Solution: 100

Problem: What value of kinase still bound, per cent of control has been reported for the following molecule? `CCCS(=O)(=O)Nc1ccc(F)c(C(=O)c2c[nH]c3ncc(Cl)cc23)c1F`
Solution: 78

Problem: What value of kinase still bound, per cent of control has been reported for the following molecule? `Cc1cn(-c2cc(C(=O)Nc3ccc(C)c(NC(=O)c4ccno4)c3)cc(C(F)(F)F)c2)cn1`
Solution: 100

Problem: What value of kinase still bound, per cent of control has been reported for the following molecule? `CC(=O)c1c(C)c2cnc(Nc3ccc(N4CCNCC4)cn3)nc2n(C2CCCC2)c1=O`
Solution: 7.3

* * *

Assignment: determine reported kinase still bound, per cent of control for the given compounds.
- Measurement Target: MAPK9 (human)
- Experiment: KINOMEscan competition binding
- Condition Set: compound 10.0 µM
Express the result in % but write the number alone.

Problem: Kindly state the measured kinase still bound, per cent of control obtained for `CCOc1cc(N2CCC(O)CC2)ccc1Nc1ncc2c(n1)N(C)c1ccccc1C(=O)N2C` with MAPK9 (human).
Solution: 100

Problem: Kindly state the measured kinase still bound, per cent of control obtained for `CNC(=O)Nc1ccc(-c2nc(N3CC4CCC(C3)O4)c3cnn(C4CCC5(CC4)OCCO5)c3n2)cc1` with MAPK9 (human).
Solution: 85

Problem: Kindly state the measured kinase still bound, per cent of control obtained for `COc1cc(N2CCC(C(N)=O)CC2)ccc1Nc1nc(N)c(Cl)c(Nc2ccccc2S(=O)(=O)C(C)C)n1` with MAPK9 (human).
Solution: 100

Problem: Kindly state the measured kinase still bound, per cent of control obtained for `N#Cc1cc(-c2ccnc(Nc3ccc(-n4cnc(-c5cccnc5)n4)cc3)n2)cc(N2CCOCC2)c1` with MAPK9 (human).
Solution: 0.1

Problem: Kindly state the measured kinase still bound, per cent of control obtained for `CCCS(=O)(=O)Nc1ccc(F)c(C(=O)c2c[nH]c3ncc(Cl)cc23)c1F` with MAPK9 (human).
Solution: 71

Problem: Kindly state the measured kinase still bound, per cent of control obtained for `COc1cc2ncnc(Nc3cccc(Cl)c3)c2cc1OC` with MAPK9 (human).
Solution: 18

Problem: Kindly state the measured kinase still bound, per cent of control obtained for COc1cc(C)c(Sc2cnc(NC(=O)c3ccc(CNC(C)C(C)C)cc3)s2)cc1C(=O)N1CCN(C(C)=O)CC1 (centres undefined) with MAPK9 (human).
Solution: 100

Problem: Kindly state the measured kinase still bound, per cent of control obtained for `CCc1nc(-c2cccc(C)c2)c(-c2ccnc(NC(=O)c3ccccc3)c2)s1` with MAPK9 (human).
Solution: 0

Problem: Kindly state the measured kinase still bound, per cent of control obtained for `Cc1cn(-c2cc(C(=O)Nc3ccc(C)c(NC(=O)c4ccno4)c3)cc(C(F)(F)F)c2)cn1` with MAPK9 (human).
Solution: 100

* * *

Assignment: determine reported kinase still bound, per cent of control for the given molecules.
- Measurement Target: RPS6KA5 KD2 (human) (UniProt O75582)
- Sequence (O75582 whole entry, looked up): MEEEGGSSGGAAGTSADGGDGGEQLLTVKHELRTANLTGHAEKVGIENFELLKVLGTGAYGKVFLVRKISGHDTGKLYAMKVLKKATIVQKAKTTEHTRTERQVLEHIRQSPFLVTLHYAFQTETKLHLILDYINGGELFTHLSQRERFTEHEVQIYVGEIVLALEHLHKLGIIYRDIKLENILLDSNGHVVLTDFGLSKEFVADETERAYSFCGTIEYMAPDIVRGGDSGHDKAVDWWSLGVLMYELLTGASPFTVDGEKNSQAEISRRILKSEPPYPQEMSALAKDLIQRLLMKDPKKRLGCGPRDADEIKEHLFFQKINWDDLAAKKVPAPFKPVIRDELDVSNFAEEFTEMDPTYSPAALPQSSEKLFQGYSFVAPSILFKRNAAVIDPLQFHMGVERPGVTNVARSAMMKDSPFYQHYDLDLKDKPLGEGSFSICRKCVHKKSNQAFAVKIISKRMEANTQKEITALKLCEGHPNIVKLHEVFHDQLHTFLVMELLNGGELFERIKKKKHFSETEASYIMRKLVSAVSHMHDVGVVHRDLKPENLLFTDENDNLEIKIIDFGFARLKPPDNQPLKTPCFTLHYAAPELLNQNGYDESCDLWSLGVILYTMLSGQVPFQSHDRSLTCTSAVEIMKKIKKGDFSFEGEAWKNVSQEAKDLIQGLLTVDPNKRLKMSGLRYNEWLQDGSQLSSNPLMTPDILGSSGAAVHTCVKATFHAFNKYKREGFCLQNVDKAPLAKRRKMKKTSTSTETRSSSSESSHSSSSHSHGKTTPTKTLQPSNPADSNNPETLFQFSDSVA
- Experiment: KINOMEscan competition binding
- Condition Set: compound 10.0 µM
Express the result in % but write the number alone.

Problem: What value of kinase still bound, per cent of control has been reported for the following molecule? `CCc1nc(-c2cccc(C)c2)c(-c2ccnc(NC(=O)c3ccccc3)c2)s1`
Solution: 100

Problem: What value of kinase still bound, per cent of control has been reported for the following molecule? `CCCS(=O)(=O)Nc1ccc(F)c(C(=O)c2c[nH]c3ncc(Cl)cc23)c1F`
Solution: 86

Problem: What value of kinase still bound, per cent of control has been reported for the following molecule? `COc1cc2c(Nc3ccc(NC(=O)c4ccccc4)cc3)ncnc2cc1OCCCN1CCOCC1`
Solution: 100

Problem: What value of kinase still bound, per cent of control has been reported for the following molecule? `C=CC(=O)Nc1ccc(C(=O)c2sc(Nc3ccc(N4CCN(C)CC4)cc3OC)nc2N)cc1`
Solution: 7

Problem: What value of kinase still bound, per cent of control has been reported for the following molecule? `N#C/C(=C1/Nc2ccccc2S1)c1ccnc(NCCc2cccnc2)n1`
Solution: 72

* * *

- Measurement Target: AURKB (human)
- Experiment: KINOMEscan competition binding
- Condition Set: compound 10.0 µM
Assignment: determine reported kinase still bound, per cent of control for the given compounds.
Kindly write the number and append the unit.

Problem: What value of kinase still bound, per cent of control has been reported for the following compound? `COc1ccc(N(C(=O)Oc2cc(C(=O)Nc3cccc(C(F)(F)F)c3)ccc2C)c2ccnc(Nc3ccc(N4CCN(C)CC4)cc3)n2)c(OC)c1`
Solution: 100%

Problem: What value of kinase still bound, per cent of control has been reported for the following compound? `CNC(=O)Nc1ccc(-c2nc(N3CC4CCC(C3)O4)c3cnn(C4CCC5(CC4)OCCO5)c3n2)cc1`
Solution: 92%

Problem: What value of kinase still bound, per cent of control has been reported for the following compound? COc1cc(C)c(Sc2cnc(NC(=O)c3ccc(CNC(C)C(C)C)cc3)s2)cc1C(=O)N1CCN(C(C)=O)CC1 (centres undefined)
Solution: 100%

Problem: What value of kinase still bound, per cent of control has been reported for the following compound? `N#C/C(=C1/Nc2ccccc2S1)c1ccnc(NCCc2cccnc2)n1`
Solution: 89%

* * *

Assignment: determine reported kinase still bound, per cent of control for the given compounds.
- Measurement Target: STK38 (human)
- Experiment: KINOMEscan competition binding
- Condition Set: compound 10.0 µM
Express the result in % but write the number alone.

Problem: Kindly state the measured kinase still bound, per cent of control obtained for `CCN1CCN(Cc2ccc(NC(=O)c3ccc(C)c(/C=C/c4cnc5[nH]ccc5c4OC)c3)cc2C(F)(F)F)CC1` with STK38 (human).
Solution: 72

Problem: Kindly state the measured kinase still bound, per cent of control obtained for `N#C/C(=C1/Nc2ccccc2S1)c1ccnc(NCCc2cccnc2)n1` with STK38 (human).
Solution: 91

Problem: Kindly state the measured kinase still bound, per cent of control obtained for `CCc1nc(-c2cccc(C)c2)c(-c2ccnc(NC(=O)c3ccccc3)c2)s1` with STK38 (human).
Solution: 100

Problem: Kindly state the measured kinase still bound, per cent of control obtained for `C=CC(=O)Nc1ccc(C(=O)c2sc(Nc3ccc(N4CCN(C)CC4)cc3OC)nc2N)cc1` with STK38 (human).
Solution: 67

Problem: Kindly state the measured kinase still bound, per cent of control obtained for `CNC(=O)Nc1ccc(-c2nc(N3CC4CCC(C3)O4)c3cnn(C4CCC5(CC4)OCCO5)c3n2)cc1` with STK38 (human).
Solution: 100

Problem: Kindly state the measured kinase still bound, per cent of control obtained for `Cc1cn(-c2cc(C(=O)Nc3ccc(C)c(NC(=O)c4ccno4)c3)cc(C(F)(F)F)c2)cn1` with STK38 (human).
Solution: 100

Problem: Kindly state the measured kinase still bound, per cent of control obtained for CC1=C(C(=O)Nc2cc3cn[nH]c3cc2F)C(c2ccc(C(F)(F)F)cc2)CC(=O)N1 (centres undefined) with STK38 (human).
Solution: 19

Problem: Kindly state the measured kinase still bound, per cent of control obtained for `CCCS(=O)(=O)Nc1ccc(F)c(C(=O)c2c[nH]c3ncc(Cl)cc23)c1F` with STK38 (human).
Solution: 78

Problem: Kindly state the measured kinase still bound, per cent of control obtained for `COc1cc2ncnc(Nc3cccc(Cl)c3)c2cc1OC` with STK38 (human).
Solution: 61

* * *

Assignment: determine reported kinase still bound, per cent of control for the given compounds.
- Measurement Target: SRPK1 (human)
- Experiment: KINOMEscan competition binding
- Condition Set: compound 10.0 µM
Express the result in % but write the number alone.

Problem: What value of kinase still bound, per cent of control has been reported for the following compound? `CCc1nc(-c2cccc(C)c2)c(-c2ccnc(NC(=O)c3ccccc3)c2)s1`
Solution: 100

Problem: What value of kinase still bound, per cent of control has been reported for the following compound? `COc1cc2c(Nc3ccc(NC(=O)c4ccccc4)cc3)ncnc2cc1OCCCN1CCOCC1`
Solution: 100

Problem: What value of kinase still bound, per cent of control has been reported for the following compound? `Cc1cn(-c2cc(C(=O)Nc3ccc(C)c(NC(=O)c4ccno4)c3)cc(C(F)(F)F)c2)cn1`
Solution: 100

Problem: What value of kinase still bound, per cent of control has been reported for the following compound? CC1=C(C(=O)Nc2cc3cn[nH]c3cc2F)C(c2ccc(C(F)(F)F)cc2)CC(=O)N1 (configuration not stated)
Solution: 100

Problem: What value of kinase still bound, per cent of control has been reported for the following compound? `CCN(CCO)CCCOc1ccc2c(Nc3cc(CC(=O)Nc4cccc(F)c4)[nH]n3)ncnc2c1`
Solution: 100

Problem: What value of kinase still bound, per cent of control has been reported for the following compound? `CNC(=O)Nc1ccc(-c2nc(N3CC4CCC(C3)O4)c3cnn(C4CCC5(CC4)OCCO5)c3n2)cc1`
Solution: 100

Problem: What value of kinase still bound, per cent of control has been reported for the following compound? `N#Cc1cc(-c2ccnc(Nc3ccc(-n4cnc(-c5cccnc5)n4)cc3)n2)cc(N2CCOCC2)c1`
Solution: 30

Problem: What value of kinase still bound, per cent of control has been reported for the following compound? `C=CC(=O)Nc1ccc(C(=O)c2sc(Nc3ccc(N4CCN(C)CC4)cc3OC)nc2N)cc1`
Solution: 71

Problem: What value of kinase still bound, per cent of control has been reported for the following compound? `CCOc1cc(N2CCC(O)CC2)ccc1Nc1ncc2c(n1)N(C)c1ccccc1C(=O)N2C`
Solution: 100

Problem: What value of kinase still bound, per cent of control has been reported for the following compound? `COc1cc(N2CCC(C(N)=O)CC2)ccc1Nc1nc(N)c(Cl)c(Nc2ccccc2S(=O)(=O)C(C)C)n1`
Solution: 100

Problem: What value of kinase still bound, per cent of control has been reported for the following compound? `O=c1[nH]c2ccccc2n1C1CCN(Cc2ccc(-c3nc4cc5[nH]cnc5cc4nc3-c3ccccc3)cc2)CC1`
Solution: 99

Problem: What value of kinase still bound, per cent of control has been reported for the following compound? COc1cc(C)c(Sc2cnc(NC(=O)c3ccc(CNC(C)C(C)C)cc3)s2)cc1C(=O)N1CCN(C(C)=O)CC1 (configuration not stated)
Solution: 100

Problem: What value of kinase still bound, per cent of control has been reported for the following compound? `COc1cc2ncnc(Nc3cccc(Cl)c3)c2cc1OC`
Solution: 67

Problem: What value of kinase still bound, per cent of control has been reported for the following compound? `CCN1CCN(Cc2ccc(NC(=O)c3ccc(C)c(/C=C/c4cnc5[nH]ccc5c4OC)c3)cc2C(F)(F)F)CC1`
Solution: 1.8

Problem: What value of kinase still bound, per cent of control has been reported for the following compound? `N#C/C(=C1/Nc2ccccc2S1)c1ccnc(NCCc2cccnc2)n1`
Solution: 70

Problem: What value of kinase still bound, per cent of control has been reported for the following compound? `CCCS(=O)(=O)Nc1ccc(F)c(C(=O)c2c[nH]c3ncc(Cl)cc23)c1F`
Solution: 100

Problem: What value of kinase still bound, per cent of control has been reported for the following compound? `COc1ccc(N(C(=O)Oc2cc(C(=O)Nc3cccc(C(F)(F)F)c3)ccc2C)c2ccnc(Nc3ccc(N4CCN(C)CC4)cc3)n2)c(OC)c1`
Solution: 100

These measurements were taken from the kinase profiling compilation of Christmann-Franck et al. (2016).
